- System: HCT-15 colon
- assay_name: NCI-60 one-dose screen, 48 h (100 = growth as untreated, 0 = no growth, -100 = all killed)
- measurement_parameters: 10 µM unless noted
This is part of a sample that, as a whole, favours compounds with a hit. Of some 83,000 tested, about 20% had one in any assay. The source made the active and inactive calls. The calls were made as follows: active = growth percent below 10; inactive = the rest.
recorded_endpoint: growth

C#Cc1nc(/C=C/C(=O)c2nccn2C)cs1 : -72.9% (active)
COc1c(N2CC3CCCNC3C2)c(F)cc2c(=O)c(C(=O)N/N=C/c3ccc(Br)cc3)cn(C3CC3)c12 (stereo not given) : 1.76% (active)
Cc1ccc2c(c1)Oc1nc(N)c(C#N)c(N)c1C2Sc1ccc(F)cc1 (stereo not given) : -77.9% (active)
NC(N)=Nc1ccc(Oc2cccc(NC(N)=Nc3ccc(I)cc3F)c2)cn1 : 87.4% (inactive)
O=C(CN1CCN(c2cc(=O)[nH]c3ccc(F)cc23)CC1)Nc1ccc(Cl)cc1 : 79.3% (inactive)
